B1: tRNA (parent)
chain: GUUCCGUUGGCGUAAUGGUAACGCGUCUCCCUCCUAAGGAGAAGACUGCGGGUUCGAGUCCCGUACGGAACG

# Variants of: B1
# Assay Method Text: yeast fitness, log relative to wild type (ln ratio); higher = fitter; tRNA-Arg(CCU), competitive growth, 37 C, 1 M NaCl
Label condition met when yeast fitness (ln) is at or above -0.2; otherwise label condition not met.

# count of solved cases: 3
G6U C66A A69G A70U | condition not met
G1A U2C G6U C27U A43C C46U C66A A69G A70U | condition not met
G1A U2C G6U A43C C46U C66A A69G A70G | condition not met

# input Please indicate if the recorded yeast fitness (ln) for G6A C46U A69G A70G C71U meets or exceeds -0.2.
# output condition met

# input Please indicate if the recorded yeast fitness (ln) for U2C C46U C66A A69G A70G C71U meets or exceeds -0.2.
# output condition met
